B1: mRNA-splicing (parent)
chain: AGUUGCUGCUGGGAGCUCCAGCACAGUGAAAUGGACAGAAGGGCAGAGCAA

# Variants of: B1
# test: exon inclusion enrichment index; higher = more inclusion; WT1 exon 5 minigene, HEK293
// not fulfilled strictly below 3 in exon inclusion enrichment index; fulfilled otherwise

Past entries and their recorded results:
{"variant-description": "G5C C6A U7C G8A U10A U27G G28A", "class-assignment": "not fulfilled"}
{"variant-description": "G5C C6U G8C C9U U10C C16A", "class-assignment": "not fulfilled"}
{"variant-description": "G5U C6U U7C G8U C9U", "class-assignment": "not fulfilled"}
{"variant-description": "C6A U7C C9A U10C G33A G34U", "class-assignment": "not fulfilled"}
{"variant-description": "C6A U7A G8U C9A", "class-assignment": "not fulfilled"}
{"variant-description": "G5A C6U U7A G8U C9A A30U A31U", "class-assignment": "not fulfilled"}
{"variant-description": "G5A U7C G8A U10C G26U U27C", "class-assignment": "fulfilled"}
{"variant-description": "G5A U7C G8A U10C C44A A45G", "class-assignment": "fulfilled"}
{"variant-description": "G5C C6G U7C U10C G43A", "class-assignment": "fulfilled"}

Continue with the variant presented below.
Does the variant G5C C6A U7C G8A U10A A29C have recorded exon inclusion enrichment index that is 3 or more? not fulfilled
